# Measured target: CaSla1-D1-D2
# Protocol description: SPOT peptide array binding signal intensity (averaged, normalized) (arbitrary units (background-subtracted, floor 0; scale differs between SH3 domains)); higher = stronger binding of the SH3 domain to the peptide
Parameter threshold = 1000. Response is Fulfilled when SPOT peptide array binding signal intensity meets or exceeds it, else Not fulfilled.

[in] Can RKRRTHLRLPLIRSN be said to have SPOT peptide array binding signal intensity at or above 1000?
[out] Not fulfilled

[in] Can RLSFFFPLDPAYIRN be said to have SPOT peptide array binding signal intensity at or above 1000?
[out] Not fulfilled

[in] Can SSTPTTPERPKRKSG be said to have SPOT peptide array binding signal intensity at or above 1000?
[out] Not fulfilled

[in] Can GKFIPSRPAPKPPSS be said to have SPOT peptide array binding signal intensity at or above 1000?
[out] Not fulfilled

[in] Can KRRAPPPVPKKPSSR be said to have SPOT peptide array binding signal intensity at or above 1000?
[out] Fulfilled

[in] Can NPLPKEPRLPKRKVA be said to have SPOT peptide array binding signal intensity at or above 1000?
[out] Fulfilled
